- Test Details: Dynamic light scattering particle size
- Type: physicochemical
- Recorded Conditions: DLS, with detergent, 40 μM compound
A collection of molecules and their measured Particle size (with Tween 20)

Known Particle size (with Tween 20) results, listed for orientation:
                                   molecule   endpoint_value
0  CCCc1nn2c(=O)cc(CSc3nc(-c4ccc(C)cc4)nc4cc(=O)[nH]n34)nc2s1 [Compound G199-0398]   7.2 (40 μM) nm
1  COc1cc(C(=O)NS(=O)(=O)c2ccccc2C)ccc1Cc1cn(C)c2ccc(NC(=O)OC3CCCC3)cc12 [Compound S1633]   9.2 (40 μM) nm
2  Cc1cc(C(C#N)c2ccc(Cl)cc2)c(Cl)cc1NC(=O)c1cc(I)cc(I)c1O (stereo not shown) [Compound S4105]  13.1 (40 μM) nm
3  Oc1ccc(C2NCCc3c2[nH]c2ccc(Cl)cc32)cc1O (stereo not shown) [Compound C200-9144]   8.3 (40 μM) nm
4  Cc1ccc(CCNC(=O)c2cnn3c(O)c(Cc4cc(C)ccc4C)c(C)nc23)cc1 [Compound K786-9739]   7.1 (40 μM) nm

stdin: Form field: reported Particle size (with Tween 20) of COC(=O)c1ccc(Cl)cc1NC(=O)CSc1ncc(S(=O)(=O)c2ccc(Br)cc2)c(=O)[nH]1 [Compound C200-5340]
stdout: 7.5 (40 μM) nm

stdin: Also check CN(CC(=O)N(Cc1ccc(C2CCCCC2)cc1)c1ccc(C(=O)O)cc1)S(=O)(=O)c1c(F)c(F)c(F)c(F)c1F [Compound S7337]
stdout: 8.2 (40 μM) nm

* * *

- Tested on: VSV-eGFP
- Test Details: microbe, parasite or virus in culture
- Assay type: cell-based, vesicular stomatitis virus
Observable: inhibition of VSV-eGFP in counter screen

In [3]: df
Out[3]:
                                   compound                                observable  endpoint_value
0  Oc1ccc(C2NCCc3c2[nH]c2ccc(Cl)cc32)cc1O (stereo not shown)  inhibition of VSV-eGFP in counter screen    less potency
1  COC(=O)c1ccc(Cl)cc1NC(=O)CSc1ncc(S(=O)(=O)c2ccc(Br)cc2)c(=O)[nH]1  inhibition of VSV-eGFP in counter screen    less potency
2  CN(CC(=O)N(Cc1ccc(C2CCCCC2)cc1)c1ccc(C(=O)O)cc1)S(=O)(=O)c1c(F)c(F)c(F)c(F)c1F  inhibition of VSV-eGFP in counter screen    less potency

* * *

- System Tested: DENV2 sE2 (Dengue virus type 2)
A collection of compounds and their measured pKd
Would you please state pKd, meaning minus log10 of the concentration in mol/L, as a bare number?

Known pKd results, listed for orientation:
In [3]: df
Out[3]:
                                   compound  endpoint_value
0  Cc1cc(C(C#N)c2ccc(Cl)cc2)c(Cl)cc1NC(=O)c1cc(I)cc(I)c1O (stereo not shown)            6.05
1  Cc1ccc(CCNC(=O)c2cnn3c(O)c(Cc4cc(C)ccc4C)c(C)nc23)cc1            5.89
2  CN(CC(=O)N(Cc1ccc(C2CCCCC2)cc1)c1ccc(C(=O)O)cc1)S(=O)(=O)c1c(F)c(F)c(F)c(F)c1F            5.89

stdin: Form field: reported pKd of `COC(=O)c1ccc(Cl)cc1NC(=O)CSc1ncc(S(=O)(=O)c2ccc(Br)cc2)c(=O)[nH]1`
stdout: 5.15

* * *

- System Tested: DENV2 sE2 (Dengue virus type 2)
- Test Details: biochemical
- Assay type: binding, Dengue virus 2
- Recorded Conditions: IC50 (AlphaScreen), Table 2
Observable: IC50

stdin: Form field: reported IC50 of Cc1nc2c(C(=O)NCc3cccnc3)cnn2c(O)c1Cc1ccc(F)cc1 [JBJ-16-105]
stdout: > 10 µM

* * *

A collection of compounds and their measured CC50 at 24 h
- Test Details: Cytotoxicity assay (CellTiter-Glo)
- Recorded Conditions: hamster
Give the value in µM but do not write µM after it.

Known CC50 at 24 h results, listed for orientation:
                                   molecule  uom  endpoint_value
0  Cc1ccc(CCNC(=O)c2cnn3c(O)c(Cc4cc(C)ccc4C)c(C)nc23)cc1   µM              81
1  CCCc1nn2c(=O)cc(CSc3nc(-c4ccc(C)cc4)nc4cc(=O)[nH]n34)nc2s1   µM              68

Moving on to another compound below.
stdin: Form field: reported CC50 at 24 h of `CN(CC(=O)N(Cc1ccc(C2CCCCC2)cc1)c1ccc(C(=O)O)cc1)S(=O)(=O)c1c(F)c(F)c(F)c(F)c1F`
stdout: 12.7

* * *

- Test Details: Mouse microsomal stability
- Recorded Conditions: mouse microsomes, T1/2 (mouse microsome), mouse microsomal stability
Observable: half-life

>>> print(df.to_string())
                                   compound  observable  endpoint_value
0  COc1cc(C(=O)NS(=O)(=O)c2ccccc2C)ccc1Cc1cn(C)c2ccc(NC(=O)OC3CCCC3)cc12 [Compound S1633]   half-life        37.7 min
1  COC(=O)c1ccc(Cl)cc1NC(=O)CSc1ncc(S(=O)(=O)c2ccc(Br)cc2)c(=O)[nH]1 [Compound C200-5340]   half-life         4.2 min
2  COc1ccc(Nc2cc(C)c3cc(NC(=O)c4ccc(N(C)C)cc4)ccc3n2)cc1 [Compound C066-4182]   half-life         5.3 min
3  Cc1ccc(CCNC(=O)c2cnn3c(O)c(Cc4cc(C)ccc4C)c(C)nc23)cc1 [Compound K786-9739]   half-life        14.9 min
4  Oc1ccc(C2NCCc3c2[nH]c2ccc(Cl)cc32)cc1O (centres unmarked) [Compound C200-9144]   half-life        55.6 min
5  Cc1cc(C(C#N)c2ccc(Cl)cc2)c(Cl)cc1NC(=O)c1cc(I)cc(I)c1O (centres unmarked) [Compound S4105]   half-life       > 120 min
6  CN(CC(=O)N(Cc1ccc(C2CCCCC2)cc1)c1ccc(C(=O)O)cc1)S(=O)(=O)c1c(F)c(F)c(F)c(F)c1F [Compound S7337]   half-life         3.2 min

Moving on to another compound below.
stdin: Form field: reported half-life of CCCc1nn2c(=O)cc(CSc3nc(-c4ccc(C)cc4)nc4cc(=O)[nH]n34)nc2s1 [Compound G199-0398]
stdout: 70.6 min

* * *

- System Tested: DENV2 sE2 (Dengue virus type 2, UniProt P14340)
- Test Details: biochemical
- Format: binding, Dengue virus 2
- Recorded Conditions: IC50 (AlphaScreen), concentration that inhibits 50% luminescence signal in the AlphaScreen competition assay; Table 1
Observable: pIC50
Would you please state pIC50, meaning minus log10 of the concentration in mol/L, as a bare number?

Known pIC50 results, listed for orientation:
                                   compound  endpoint_value
0  COc1cc(C(=O)NS(=O)(=O)c2ccccc2C)ccc1Cc1cn(C)c2ccc(NC(=O)OC3CCCC3)cc12 [Compound S1633]            5.51
1  Cc1ccc(CCNC(=O)c2cnn3c(O)c(Cc4cc(C)ccc4C)c(C)nc23)cc1 [Compound K786-9739]            5.52

stdin: Form field: reported pIC50 of Cc1cc(C(C#N)c2ccc(Cl)cc2)c(Cl)cc1NC(=O)c1cc(I)cc(I)c1O (centres unmarked) [Compound S4105]
stdout: 6.22

stdin: Also check Oc1ccc(C2NCCc3c2[nH]c2ccc(Cl)cc32)cc1O (centres unmarked) [Compound C200-9144]
stdout: 5.59

stdin: Also check CCCc1nn2c(=O)cc(CSc3nc(-c4ccc(C)cc4)nc4cc(=O)[nH]n34)nc2s1 [Compound G199-0398]
stdout: 5.15

stdin: Also check COc1ccc(Nc2cc(C)c3cc(NC(=O)c4ccc(N(C)C)cc4)ccc3n2)cc1 [Compound C066-4182]
stdout: 5.85

stdin: Also check CN(CC(=O)N(Cc1ccc(C2CCCCC2)cc1)c1ccc(C(=O)O)cc1)S(=O)(=O)c1c(F)c(F)c(F)c(F)c1F [Compound S7337]
stdout: 5.39

stdin: Also check COC(=O)c1ccc(Cl)cc1NC(=O)CSc1ncc(S(=O)(=O)c2ccc(Br)cc2)c(=O)[nH]1 [Compound C200-5340]
stdout: 5.52

* * *

A collection of molecules and their measured IC50
- System Tested: AmpC β-lactamase (Escherichia coli)
- Sequence (P00811 20-377): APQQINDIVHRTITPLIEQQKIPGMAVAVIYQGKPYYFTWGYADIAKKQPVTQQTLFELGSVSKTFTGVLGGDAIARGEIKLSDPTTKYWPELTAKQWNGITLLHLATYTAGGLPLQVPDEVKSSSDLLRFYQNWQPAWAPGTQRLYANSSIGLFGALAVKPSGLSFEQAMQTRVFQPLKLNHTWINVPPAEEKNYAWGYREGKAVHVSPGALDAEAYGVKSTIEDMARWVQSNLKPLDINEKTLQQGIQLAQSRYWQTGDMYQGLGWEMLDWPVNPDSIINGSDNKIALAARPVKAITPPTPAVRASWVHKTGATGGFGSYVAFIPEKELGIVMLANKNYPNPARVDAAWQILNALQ
- Test Details: biochemical
- Recorded Conditions: IC50 (AmpC), without detergent
Give the value in µM but do not write µM after it.

In [3]: df
Out[3]:
                                   molecule                        system_tested  endpoint_value
0  Cc1cc(C(C#N)c2ccc(Cl)cc2)c(Cl)cc1NC(=O)c1cc(I)cc(I)c1O (stereo not drawn) [Compound S4105]  AmpC β-lactamase (Escherichia coli)            19.5

stdin: Form field - read-out: IC50; system: AmpC β-lactamase (Escherichia coli); submitted item: COc1cc(C(=O)NS(=O)(=O)c2ccccc2C)ccc1Cc1cn(C)c2ccc(NC(=O)OC3CCCC3)cc12 [Compound S1633]
stdout: 36.6
